test: Concentrations of 24 analytes in QSG treated plasma (Table S5); settings: QSG treated plasma, 2 h, n = 5
For each entry below, report its Concentration value.
Numbers only, in ng/mL.

>>> endpoint_result("COc1ccc(-c2coc3cc(O[C@@H]4O[C@H](CO)[C@@H](O)[C@H](O)[C@H]4O)ccc3c2=O)cc1O [Calycosin-7-O-glucoside, Calycosin-7-O-D-glucoside]")
3.096
>>> endpoint_result("COc1ccc(CCO[C@@H]2O[C@H](CO[C@@H]3OC[C@H](O)[C@H](O)[C@H]3O)[C@@H](OC(=O)/C=C/c3ccc(O)c(OC)c3)[C@H](O[C@@H]3O[C@@H](C)[C@H](O)[C@@H](O)[C@H]3O)[C@H]2O)cc1O [Angoroside C]")
1.029
>>> endpoint_result("C=C[C@H]1[C@H](O[C@@H]2O[C@H](CO)[C@@H](O)[C@H](O)[C@H]2O)OC=C(C(=O)O)[C@H]1CC(=O)O [Secologanoside]")
1.274

Provide each entry's Concentration from the list below.
1. O=C1C[C@@H](c2ccc(O)cc2)Oc2cc(O)ccc21
2. O=C(/C=C/c1ccc(O)c(O)c1)O[C@H]1[C@H](O)C[C@](O)(C(=O)O)C[C@H]1O

2.336
29.505
